System: SK-MEL-28 melanoma
Assay: NCI tumour cell line growth inhibition, 48 h
Where a SMILES comes first, the peptide text is derived from it. The star is where a group is joined. Boc = CC(C)(C)OC(=O)*; OSu = O=C1CCC(=O)N1O*

COMPOUND	SYSTEM UNDER TEST	TGI
Cc1ccc(SC(CCC(Sc2ccc(C)cc2)Sc2ccc(C)cc2)Sc2ccc(C)cc2)cc1	SK-MEL-28 melanoma	> 100 µM
COc1ccc(S(=O)(=O)N2CC(C)(C)CN(S(=O)(=O)c3ccc(OC)cc3)C2C(=O)NO)cc1	SK-MEL-28 melanoma	> 20 µM
COc1cc(NC(N)=NCCC(C)(C)Oc2ccc(C(F)(F)F)cc2)ncc1C#N	SK-MEL-28 melanoma	3.23 µM
CC(NC(=O)C(NC(=O)OC(C)(C)C)C(C)C)C(=O)NCC(=O)ON1C(=O)CCC1=O (stereo not drawn) (Boc-Val-Ala-Gly-OSu; configuration not given here)	SK-MEL-28 melanoma	> 100 µM
CN(C)CCCNC(=O)c1cc(NC(=O)c2cc(NC(=O)CCc3c[nH]c4ccccc34)cn2C)cn1C	SK-MEL-28 melanoma	> 100 µM

---

Test system: DLD-1 colon
Assay: NCI tumour cell line growth inhibition, 48 h
This section presents molecules with their documented TGI values.
PARAMETER MEASURED: TGI

MOLECULE	REPORTED RESULT
CC(NC(=O)C(C)NC(=O)C(N)CCP(C)(=O)O)C(=O)O (stereo not given)	> 100 µM
O=C1c2ccc(O)cc2C(=O)c2ccc(O)cc21	> 100 µM
CCCCCC[N+](C)(C)Cc1ccc(C[N+](C)(C)CCCCCC)cc1	26.5 µM
O=C1Nc2ccccc2C12CCNC2Cc1ccccc1 (stereo not given)	> 100 µM
N[C@H](C(=O)O)[C@H]1ON=C(Cl)[C@@H]1O	> 550 µM
Cc1ccc(SC(CCC(Sc2ccc(C)cc2)Sc2ccc(C)cc2)Sc2ccc(C)cc2)cc1	> 100 µM
Cc1cc2c(ccc3c(C)cc(=O)oc32)o1	> 100 µM
O=C(c1ccc(Cl)cc1)c1ccc(OCCCOc2ccc(C(=O)c3ccc(Cl)cc3)cc2)cc1	> 100 µM
CC(C)CC(NC(=O)c1cccc(O)c1O)C(=O)NCc1cc(CNC(=O)C(CC(C)C)NC(=O)c2cccc(O)c2O)cc(CNC(=O)C(CC(C)C)NC(=O)c2cccc(O)c2O)c1 (stereo not given)	> 100 µM
CC(=O)[CH-]C(C)=O.CC(=O)[CH-]C(C)=O.[CH2-]CCC.[CH2-]CCC.[Sn+4]	1.58 µM

---

We begin with a simple list: items and their reported TGI.
Tested on: HS 578T breast
Assay: NCI tumour cell line growth inhibition, 48 h
PARAMETER MEASURED: TGI (µM)

MOLECULE	SYSTEM UNDER TEST	OP	REPORTED RESULT
COC(=O)C1C/C(=C/N(C)C)C(=S)N1 (centres undefined)	HS 578T breast	>	100
C#Cc1cccc(N2C(=O)CCC2=O)c1	HS 578T breast	=	85.8
COC(=O)c1c2c(c[n+]([O-])c1C)C(=O)C=CC2=O	HS 578T breast	=	6.04
O=S(=O)(c1ccccc1)n1c2ccc(Br)cc2c2nc3ccccc3nc21	HS 578T breast	>	100
